Catalogue of Effect readings, one per entry.
# TARGET_SYSTEM: Glutamate NMDA receptor (Rattus norvegicus) (UniProt P35439+Q00959+Q00960+Q00961+Q62645+Q8VHN2+Q9R1M7)
# PROCEDURE_DETAILS: Antagonism of N-methyl-D-aspartate glutamate receptor was measured as [Ca2+] influx in rat cerebellar granule neurons at 1 uM concentration
# Assay type: functional
# Set-up: scale not given: the % may be the effect or the level left
Report only the number, with the unit % understood.

>  <SAMPLE_SMILES>
N[C@@]1(C(=O)O)C[C@H]2C[C@@H]1[C@H]2C(=O)O

>  <Effect (%)>
17

$$$$
>  <SAMPLE_SMILES>
N[C@@]1(C(=O)O)C[C@@H]2C[C@H]1[C@H]2C(=O)O

>  <Effect (%)>
70

$$$$
>  <SAMPLE_SMILES>
N[C@@]1(C(=O)O)C[C@H]2C[C@@H]1[C@@H]2C(=O)O

>  <Effect (%)>
58

$$$$
>  <SAMPLE_SMILES>
N[C@@]1(C(=O)O)C[C@@H]2C[C@H]1[C@@H]2C(=O)O

>  <Effect (%)>
96

$$$$

Let's switch to this compound now.
# get_value(readout='Effect', item= `C[C@]12N[C@H](Cc3ccccc31)c1ccccc12` )
0

###

# TARGET_SYSTEM: Glutamate NMDA receptor (Rattus norvegicus) (UniProt P35439+Q00959+Q00960+Q00961+Q62645+Q8VHN2+Q9R1M7)
# PROCEDURE_DETAILS: Agonistic activity at N-methyl-D-aspartate glutamate receptor was measured as [Ca2+] influx in rat cerebellar granule neurons at 1 uM concentration
# Type: functional
Reported Activity is given for each of the following molecules.
Reply with just the number (in %).

// solved cases for Activity follow
>  <SAMPLE_SMILES>
C[C@]12N[C@H](Cc3ccccc31)c1ccccc12

>  <RECORDED_RESULT>
62

$$$$
>  <SAMPLE_SMILES>
N[C@@]1(C(=O)O)C[C@H]2C[C@@H]1[C@@H]2C(=O)O

>  <RECORDED_RESULT>
82

$$$$
>  <SAMPLE_SMILES>
N[C@@]1(C(=O)O)C[C@H]2C[C@@H]1[C@H]2C(=O)O

>  <RECORDED_RESULT>
69

$$$$
>  <SAMPLE_SMILES>
N[C@@]1(C(=O)O)C[C@@H]2C[C@H]1[C@@H]2C(=O)O

>  <RECORDED_RESULT>
93

$$$$

Now for the molecule whose Activity we want.
Request the reported Activity associated with `N[C@@]1(C(=O)O)C[C@@H]2C[C@H]1[C@H]2C(=O)O`
102

###

Each entry below carries its recorded EC50.
# TARGET_SYSTEM: UniProt:Q14416
# Sequence (Q14416 whole entry): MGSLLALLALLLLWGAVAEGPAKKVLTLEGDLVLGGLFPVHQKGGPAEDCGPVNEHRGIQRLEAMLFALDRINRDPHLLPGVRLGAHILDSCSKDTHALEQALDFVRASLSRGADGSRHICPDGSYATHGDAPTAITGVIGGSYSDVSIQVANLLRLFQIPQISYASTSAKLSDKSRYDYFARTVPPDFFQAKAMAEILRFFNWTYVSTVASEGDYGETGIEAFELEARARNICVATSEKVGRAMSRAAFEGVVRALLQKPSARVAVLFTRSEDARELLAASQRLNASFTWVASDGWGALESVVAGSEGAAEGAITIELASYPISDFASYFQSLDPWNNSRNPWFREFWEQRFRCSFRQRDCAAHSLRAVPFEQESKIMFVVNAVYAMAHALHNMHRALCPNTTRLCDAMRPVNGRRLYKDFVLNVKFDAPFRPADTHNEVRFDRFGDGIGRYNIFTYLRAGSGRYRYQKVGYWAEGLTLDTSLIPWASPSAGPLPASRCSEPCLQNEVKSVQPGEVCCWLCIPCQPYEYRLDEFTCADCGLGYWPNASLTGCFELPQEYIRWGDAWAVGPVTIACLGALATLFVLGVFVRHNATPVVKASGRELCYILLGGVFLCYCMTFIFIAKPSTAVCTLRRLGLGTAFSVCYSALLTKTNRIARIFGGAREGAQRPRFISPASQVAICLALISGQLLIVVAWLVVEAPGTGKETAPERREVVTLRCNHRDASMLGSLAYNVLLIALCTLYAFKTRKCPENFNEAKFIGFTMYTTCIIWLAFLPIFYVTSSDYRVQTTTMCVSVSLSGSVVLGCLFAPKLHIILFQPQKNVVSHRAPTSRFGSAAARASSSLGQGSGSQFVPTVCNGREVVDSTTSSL
# PROCEDURE_DETAILS: Compound was tested for the inhibition of metabotropic glutamate receptor 2 (mGluR2).
Your answer is read as µM, so omit the unit and give the number.

For orientation, consider the following solved cases.
>  <SAMPLE_SMILES>
N[C@@]1(C(=O)O)C[C@H]2C[C@@H]1[C@@H]2C(=O)O

>  <RESULT_UNITS>
µM

>  <RECORDED_RESULT>
54

$$$$
>  <SAMPLE_SMILES>
N[C@@]1(C(=O)O)C[C@@H]2C[C@H]1[C@@H]2C(=O)O

>  <RESULT_UNITS>
µM

>  <RECORDED_RESULT>
38

$$$$

Below: the item to evaluate.
# query: EC50 of entry `N[C@@]1(C(=O)O)C[C@@H]2C[C@H]1[C@H]2C(=O)O`
0.33
